Kindly state pIC50 for each of the entries shown.
- tested on: acetylcholinesterase (Mus musculus, UniProt P21836)
- Construct: Using a mouse brain homogenate as a source of acetylcholinesterase; from tissue; host or cells: mouse brain homogenate
- Sequence (P21836 32-614): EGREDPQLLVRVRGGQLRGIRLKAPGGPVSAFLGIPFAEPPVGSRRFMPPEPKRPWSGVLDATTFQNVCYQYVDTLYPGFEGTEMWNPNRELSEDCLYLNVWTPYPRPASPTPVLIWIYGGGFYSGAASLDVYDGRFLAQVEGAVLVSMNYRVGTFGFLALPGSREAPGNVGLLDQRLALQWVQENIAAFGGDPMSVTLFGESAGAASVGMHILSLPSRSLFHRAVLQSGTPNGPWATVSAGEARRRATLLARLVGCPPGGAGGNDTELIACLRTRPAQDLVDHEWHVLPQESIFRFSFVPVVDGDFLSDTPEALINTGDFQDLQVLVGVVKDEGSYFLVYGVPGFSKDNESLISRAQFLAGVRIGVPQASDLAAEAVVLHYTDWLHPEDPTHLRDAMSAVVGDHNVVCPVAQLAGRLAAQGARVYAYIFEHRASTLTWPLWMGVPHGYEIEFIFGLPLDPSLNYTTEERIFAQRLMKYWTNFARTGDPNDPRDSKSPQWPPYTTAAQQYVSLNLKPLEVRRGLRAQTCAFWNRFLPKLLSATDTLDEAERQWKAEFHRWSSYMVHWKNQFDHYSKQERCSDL
- assay overview: biochemical
- Type: biochemical
- setup conditions: mouse brain homogenate; thiocholine method, absorbance at 412 nm; read-out: AChE inhibitory activity IC50
Scale: negative log10 of molar concentration, which is what pIC50 denotes.

Return reported pIC50 for target or system acetylcholinesterase (Mus musculus, UniProt P21836), item O=C1c2cc3ccccc3cc2C(=O)N1CCC1CCN(Cc2ccccc2)CC1 [Example 57] . 8.92

Look up and report pIC50, with acetylcholinesterase (Mus musculus, UniProt P21836) as system, for CN(CCC1CCN(Cc2ccc(O)cc2)CC1)C(=O)c1ccc(S(=O)(=O)Cc2ccccc2)cc1 [Example 41] 9.10

Look up and report pIC50, with acetylcholinesterase (Mus musculus, UniProt P21836) as system, for O=C(NCCC1CCN(Cc2ccccc2)CC1)c1ccc2c(c1)C(=O)c1ccccc1C2=O [Example 25] 8.35

Answer with pIC50 of O=c1c2cc3c(=O)n(CCC4CCN(Cc5ccccc5)CC4)c(=O)c3cc2c(=O)n1CCC1CCN(Cc2ccccc2)CC1 [Example 112] measured for acetylcholinesterase (Mus musculus, UniProt P21836). 9.82

Answer briefly: pIC50 recorded on acetylcholinesterase (Mus musculus, UniProt P21836) for COc1cc2c(cc1Cl)C(=O)N(CCC1CCN(Cc3ccccc3)CC1)C2=O [Example 56] 8.48

State pIC50 (acetylcholinesterase (Mus musculus, UniProt P21836)) of O=C1c2ccc(Cl)cc2C(=O)N1CCC1CCN(Cc2ccccc2)CC1 [Example 133] . 8.10

Given Cc1ccc2[nH]c(=O)n(CCC3CCN(Cc4ccccc4)CC3)c(=O)c2c1 [Example 113] , report its pIC50 on acetylcholinesterase (Mus musculus, UniProt P21836). 8.33

Lab note: acetylcholinesterase (Mus musculus, UniProt P21836) assay, enter pIC50 for O=c1[nH]c2cc(Cl)ccc2c(=O)n1CCC1CCN(Cc2ccccc2)CC1 [Example 68] here 8.35

---

- tested on: acetylcholinesterase (Mus musculus)
- Construct: Using a mouse brain homogenate as a source of acetylcholinesterase; from tissue; host or cells: mouse brain homogenate
- assay overview: biochemical
- Assay type: biochemical
- setup conditions: read-out: AChE inhibitory activity IC50
quantity: IC50 (nM)
Hi! Could you send only the number? It should be in nM, unit omitted.

Give IC50 for this entry on acetylcholinesterase (Mus musculus): COc1ccc2c(c1)C(=O)N(CCC1CCN(Cc3ccccc3)CC1)C2=O 8

---

- tested on: acetylcholinesterase (Mus musculus, UniProt P21836)
- Construct: Using a mouse brain homogenate as a source of acetylcholinesterase; from tissue; host or cells: mouse brain homogenate
- assay overview: biochemical
- Assay type: biochemical
- setup conditions: mouse brain homogenate; thiocholine method, absorbance at 412 nm; read-out: AChE inhibitory activity IC50
Where a name gives a salt, the structure may show the parent alone.
quantity: pIC50
Remember the convention: pIC50 equals -log10 of concentration in molar.

Report the value of pIC50 obtained on acetylcholinesterase (Mus musculus, UniProt P21836) for O=C(NCc1ccccc1)c1ccc2c(c1)C(=O)N(CCC1CCN(Cc3ccccc3)CC1)C2=O [Example 51] . 8.66

System acetylcholinesterase (Mus musculus, UniProt P21836). Read-out pIC50. Item O=C1c2nccnc2C(=O)N1CCC1CCN(Cc2ccccc2)CC1 [Example 8] . Report value. 7.10

Look up acetylcholinesterase (Mus musculus, UniProt P21836) data: pIC50 of O=C1c2cccc3cccc(c23)C(=O)N1CCC1CCN(Cc2ccccc2)CC1 [Example 9] , then report it. 8.26

# return pIC50 for O=C1c2cccc([N+](=O)[O-])c2C(=O)N1CCC1CCN(Cc2ccccc2)CC1 [Example 47] , test system: acetylcholinesterase (Mus musculus, UniProt P21836) 8.05

Quote acetylcholinesterase (Mus musculus, UniProt P21836) pIC50 for entry CN(CCC1CCN(Cc2ccccc2)CC1)C(=O)c1ccncc1 [Example 5, hydrochloride] . 7.06

Print acetylcholinesterase (Mus musculus, UniProt P21836) pIC50 for O=C1c2ccc([N+](=O)[O-])cc2C(=O)N1CCC1CCN(Cc2ccccc2)CC1 [Example 7] . 7.85

Find pIC50 for CN(CCC1CCN(Cc2ccccc2)CC1)C(=O)c1ccc(S(=O)(=O)Cc2ccccc2)cc1 [Example 4, hydrochloride] on acetylcholinesterase (Mus musculus, UniProt P21836) and write it down. 9.22

Name the value of pIC50 reported for O=C(c1ccccc1)c1ccc2c(c1)C(=O)N(CCC1CCN(Cc3ccccc3)CC1)C2=O [Example 53] when tested on acetylcholinesterase (Mus musculus, UniProt P21836). 8.62
